test system: Panc 05.04 cells (SF3b K700E mutant); assay: Cell proliferation and viability, CellTiter-Glo, 72 hours; assay type: cell-based; settings: Panc 05.04, 72 h, read-out: CTGlo-ATS GMean GI50 (nM) 72 h PANC0504.1, PANC0504.1 cells, 72 h; geometric mean
Could you please report measured GI50 for the items listed next?
The reply should contain only the number, in nM.

Value (GI50, Panc 05.04 cells (SF3b K700E mutant)) for record "C/C(=C\c1cc(F)cc(N2CCO[C@H](CO)C2)c1)[C@H]1OC(=O)C[C@H](O)CC[C@H](C)[C@@H](OC(=O)N2CCN(C)CC2)/C=C/[C@@H]1C" = 5.17

Item "C/C(=C\c1cc(F)cc(N2CCN(CCO)C2=O)c1)[C@H]1OC(=O)C[C@H](O)CC[C@H](C)[C@@H](OC(=O)N2CCN(C)CC2)/C=C/[C@@H]1C" was tested on Panc 05.04 cells (SF3b K700E mutant); the reported GI50 is 5.74

# "C/C(=C\c1cc(F)cc(N2CCN(CC(=O)c3cnccn3)CC2)c1)[C@H]1OC(=O)C[C@H](O)CC[C@H](C)[C@@H](OC(=O)N2CCN(C)CC2)/C=C/[C@@H]1C" with Panc 05.04 cells (SF3b K700E mutant): GI50 is 8.42

Reported Panc 05.04 cells (SF3b K700E mutant) GI50 for item "C/C(=C\c1ccc(F)c(N2CCOCC2)c1)[C@H]1OC(=O)C[C@H](O)CC[C@H](C)[C@@H](OC(=O)N2CCN(C)CC2)/C=C/[C@@H]1C" was 19.3

Response field GI50 (Panc 05.04 cells (SF3b K700E mutant)) for item "C/C(=C\c1cc(F)cc(N2CCC(O)CC2)c1)[C@H]1OC(=O)C[C@H](O)CC[C@H](C)[C@@H](OC(=O)N2CCN(C)CC2)/C=C/[C@@H]1C" : 7.02

The measured GI50 that "C/C(=C\c1ccc2ccnc(O)c2c1)[C@H]1OC(=O)C[C@H](O)CC[C@H](C)[C@@H](OC(=O)N2CCN(C)CC2)/C=C/[C@@H]1C" showed for Panc 05.04 cells (SF3b K700E mutant) is 1070

Tested on Panc 05.04 cells (SF3b K700E mutant): "C/C(=C\c1cc(F)cc(N2CCN(C(=O)c3cn(C)cn3)CC2)c1)[C@H]1OC(=O)C[C@H](O)CC[C@H](C)[C@@H](OC(=O)N2CCN(C)CC2)/C=C/[C@@H]1C" . Observed GI50: 9.42

"C/C(=C\c1cc(F)cc(N2CC[C@@H](F)C2)c1)[C@H]1OC(=O)C[C@H](O)CC[C@H](C)[C@@H](OC(=O)N2CCN(C)CC2)/C=C/[C@@H]1C" on Panc 05.04 cells (SF3b K700E mutant) gives GI50 = 19.6

Tested on Panc 05.04 cells (SF3b K700E mutant): C/C(=C\c1cc(F)cc(N2CCOCC2)c1)[C@H]1OC(=O)C[C@H](O)CC[C@H](C)[C@@H](OC(=O)N(C)C2CN3CCC2CC3)/C=C/[C@@H]1C (stereo partly shown) . Observed GI50: 10.3

Form field, GI50 with Panc 05.04 cells (SF3b K700E mutant), item "C/C(=C\c1cc(F)cc(N2CCC[C@H]2C)c1)[C@H]1OC(=O)C[C@H](O)CC[C@H](C)[C@@H](OC(=O)N2CCN(C)CC2)/C=C/[C@@H]1C" : 15.8

Considering "C/C(=C\c1cc(F)cc(N2CCN(S(=O)(=O)c3cnn(C)c3)CC2)c1)[C@H]1OC(=O)C[C@H](O)CC[C@H](C)[C@@H](OC(=O)N2CCN(C)CC2)/C=C/[C@@H]1C" , its GI50 with Panc 05.04 cells (SF3b K700E mutant) was recorded as 13.9

Observed GI50 on Panc 05.04 cells (SF3b K700E mutant), entry "C/C(=C\c1cccc(S(=O)(=O)N2CCC(O)CC2)c1)[C@H]1OC(=O)C[C@H](O)CC[C@H](C)[C@@H](OC(=O)N2CCN(C)CC2)/C=C/[C@@H]1C" , equals 2.59

Case "C/C(=C\c1cc(F)cc(N2CCS(=O)(=O)CC2)c1)[C@H]1OC(=O)C[C@H](O)CC[C@H](C)[C@@H](OC(=O)N2CCN(C)CC2)/C=C/[C@@H]1C" , Panc 05.04 cells (SF3b K700E mutant), GI50 recorded as 13.6

Lab entry: Panc 05.04 cells (SF3b K700E mutant) assay, compound C/C(=C\c1cc(F)cc(N2CCOC(C)C2)c1)[C@H]1OC(=O)C[C@H](O)CC[C@H](C)[C@@H](OC(=O)N2CCN(C)CC2)/C=C/[C@@H]1C (stereo partly shown) , GI50 = 5.94

Tested system Panc 05.04 cells (SF3b K700E mutant); GI50 recorded for "C/C(=C\c1cc(F)cc(N2CCC[C@@H]2C)c1)[C@H]1OC(=O)C[C@H](O)CC[C@H](C)[C@@H](OC(=O)N2CCN(C)CC2)/C=C/[C@@H]1C" was 57.5

Reported GI50 (Panc 05.04 cells (SF3b K700E mutant)) for entry "C/C(=C\c1cc(F)cc(N2CCOCC2)c1)[C@H]1OC(=O)C[C@H](O)CC[C@@](C)(O)[C@@H](OC(=O)N2CCN(C)CC2)/C=C/[C@@H]1C" is 42
